- assayed-system: T1, human CD22-ECD-His protein (human, UniProt P20273 20-687)
- T1 construct: Recombinant, from HEK293E cells; also called hCD22-ECD-His; human CD22-His protein; not shown: His tag
- T1 sequence: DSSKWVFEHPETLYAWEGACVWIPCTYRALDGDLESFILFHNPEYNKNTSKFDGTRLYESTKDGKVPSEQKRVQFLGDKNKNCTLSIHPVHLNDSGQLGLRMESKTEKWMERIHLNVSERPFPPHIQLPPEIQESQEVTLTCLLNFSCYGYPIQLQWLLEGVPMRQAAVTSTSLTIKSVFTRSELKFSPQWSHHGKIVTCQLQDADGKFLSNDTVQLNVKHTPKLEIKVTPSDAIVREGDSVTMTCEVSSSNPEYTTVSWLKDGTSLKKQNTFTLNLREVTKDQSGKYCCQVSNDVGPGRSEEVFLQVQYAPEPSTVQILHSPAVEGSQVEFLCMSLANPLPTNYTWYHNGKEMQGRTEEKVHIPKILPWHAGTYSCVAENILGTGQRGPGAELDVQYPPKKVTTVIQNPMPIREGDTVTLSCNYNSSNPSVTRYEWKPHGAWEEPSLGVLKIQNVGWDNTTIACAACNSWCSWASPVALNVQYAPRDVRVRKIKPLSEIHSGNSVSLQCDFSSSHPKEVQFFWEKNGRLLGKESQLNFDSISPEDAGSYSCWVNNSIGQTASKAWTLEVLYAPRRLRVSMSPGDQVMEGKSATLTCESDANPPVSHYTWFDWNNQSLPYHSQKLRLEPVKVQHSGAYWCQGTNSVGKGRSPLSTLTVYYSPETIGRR
- method-description: SPR (Biacore), antibody captured on Protein A chip, CD22-ECD-His in solution
Provide the recorded koff for the entries that follow.
One number for each entry, in s⁻¹.

Consider the following illustrative entries.
[[record]]
binder = "F1.105.11 (antibody, human IgG1, kappa, V domains shown, Chimeric IgG1 kappa) VH: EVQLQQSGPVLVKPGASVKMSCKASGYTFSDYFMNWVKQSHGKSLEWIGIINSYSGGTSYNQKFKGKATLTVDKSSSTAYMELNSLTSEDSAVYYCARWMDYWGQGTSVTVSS VL: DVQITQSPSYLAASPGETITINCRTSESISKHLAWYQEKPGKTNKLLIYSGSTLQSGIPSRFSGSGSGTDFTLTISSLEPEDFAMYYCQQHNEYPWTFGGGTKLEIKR"
result_number = 0.000154

[[record]]
binder = "F2.99.1 (antibody, human IgG1, lambda, V domains shown, Chimeric IgG1 lambda) VH: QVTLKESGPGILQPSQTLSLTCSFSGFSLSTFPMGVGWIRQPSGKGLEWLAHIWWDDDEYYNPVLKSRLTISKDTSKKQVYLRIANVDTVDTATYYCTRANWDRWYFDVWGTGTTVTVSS VL: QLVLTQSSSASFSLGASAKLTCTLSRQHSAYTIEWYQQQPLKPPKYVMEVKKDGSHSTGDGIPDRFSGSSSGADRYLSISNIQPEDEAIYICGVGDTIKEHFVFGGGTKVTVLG"
result_number = 0.000162

[[record]]
binder = "F2.70.2 (antibody, human IgG1, lambda, V domains shown, Chimeric IgG1 lambda) VH: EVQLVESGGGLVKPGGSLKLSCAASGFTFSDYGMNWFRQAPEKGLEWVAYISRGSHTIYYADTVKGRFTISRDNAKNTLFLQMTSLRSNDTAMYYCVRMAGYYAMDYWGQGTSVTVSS VL: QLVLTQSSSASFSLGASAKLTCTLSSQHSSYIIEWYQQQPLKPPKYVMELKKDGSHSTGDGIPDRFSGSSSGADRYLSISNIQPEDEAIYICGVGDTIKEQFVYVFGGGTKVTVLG"
result_number = 0.000744

[[record]]
binder = "F2.121.9 (antibody, human IgG1, lambda, V domains shown, Chimeric IgG1 lambda) VH: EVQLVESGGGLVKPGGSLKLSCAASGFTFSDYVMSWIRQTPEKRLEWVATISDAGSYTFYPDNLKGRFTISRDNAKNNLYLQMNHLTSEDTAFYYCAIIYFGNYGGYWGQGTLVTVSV VL: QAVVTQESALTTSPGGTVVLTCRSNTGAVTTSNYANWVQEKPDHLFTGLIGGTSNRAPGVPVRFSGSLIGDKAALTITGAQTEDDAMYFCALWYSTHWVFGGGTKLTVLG"
result_number = 0.000393

[[record]]
binder = "F1.60.9 (antibody, human IgG1, kappa, V domains shown, Chimeric IgG1 kappa) VH: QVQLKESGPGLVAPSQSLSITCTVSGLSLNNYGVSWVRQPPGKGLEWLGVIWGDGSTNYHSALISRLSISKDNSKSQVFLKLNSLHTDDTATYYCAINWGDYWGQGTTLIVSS VL: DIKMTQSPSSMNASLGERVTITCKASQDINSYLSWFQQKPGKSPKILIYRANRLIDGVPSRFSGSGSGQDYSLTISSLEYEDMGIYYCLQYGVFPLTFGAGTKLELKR"
result_number = "7.64e-05"

[[record]]
binder = "F2.55.1 (antibody, human IgG1, lambda, V domains shown, Chimeric IgG1 lambda) VH: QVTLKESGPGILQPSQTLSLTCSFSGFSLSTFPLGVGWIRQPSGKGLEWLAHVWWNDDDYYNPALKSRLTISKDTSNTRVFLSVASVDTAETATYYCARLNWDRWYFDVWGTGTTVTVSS VL: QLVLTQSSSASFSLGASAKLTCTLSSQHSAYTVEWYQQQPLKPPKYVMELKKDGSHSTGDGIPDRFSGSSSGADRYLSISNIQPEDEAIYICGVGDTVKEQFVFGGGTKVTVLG"
result_number = "7.42e-05"


I need koff for every entry listed below, if you could help.
1. F2.180.16 (antibody, human IgG1, lambda, V domains shown, Chimeric IgG1 lambda) VH: EVKLVESGGGLVLPGGSLKISCAASGFTFSDYYMYWIRQTPDKRLEWVAYISNTGYSTFYPDSVKGRFTVSRDNAKNTLYLQMSRLQSEDTAMYYCARHGILYAMDYWGQGTSVTVSS VL: QPVLTQSSSASFSLGASAKLTCTLSSQYSTYTIGWYQQQPLKPPKYVMELKHDGSRHTGDGIPDRFSGSSSGADRYLSISNIQPEDEATYICGVGDTIKEQFMYVFGGGTKVTVLG
2. F1.172.13 (antibody, human IgG1, kappa, V domains shown, Chimeric IgG1 kappa) VH: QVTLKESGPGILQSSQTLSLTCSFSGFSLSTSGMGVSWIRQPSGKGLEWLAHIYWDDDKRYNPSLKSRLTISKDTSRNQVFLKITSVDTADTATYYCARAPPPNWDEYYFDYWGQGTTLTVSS VL: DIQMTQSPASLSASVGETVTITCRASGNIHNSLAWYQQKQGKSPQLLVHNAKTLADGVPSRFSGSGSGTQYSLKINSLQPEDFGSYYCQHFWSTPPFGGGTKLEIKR
3. F1.120.15 (antibody, human IgG1, kappa, V domains shown, Chimeric IgG1 kappa) VH: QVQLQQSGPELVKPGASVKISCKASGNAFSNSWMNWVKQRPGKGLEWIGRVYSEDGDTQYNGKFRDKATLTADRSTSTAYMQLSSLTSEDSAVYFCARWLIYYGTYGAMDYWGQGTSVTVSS VL: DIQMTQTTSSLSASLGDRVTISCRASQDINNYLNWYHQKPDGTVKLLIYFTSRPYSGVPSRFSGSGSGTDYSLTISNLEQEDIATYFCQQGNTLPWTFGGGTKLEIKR

0.000155
0.00539
0.000232
